# Tested on: SK-MEL-28
# assayOverview: NCI-60 single-dose antiproliferative screen
# Format: cell-based
# recordedConditions: Homo sapiens, SK-MEL-28, 48 h, read-out: growth percent
reportedMetric: activity at 10 µM (%)
Give just the numeric value; % need not be written.

Field: example entries. Status: answers known.
CCc1ccc(-n2cc(COc3ccc(CNC(=O)CCCC/C=C/C(C)C)cc3OC)nn2)cc1 [14o]: 115
COc1cc(CNC(=O)CCCC/C=C/C(C)C)ccc1OCc1cn(-c2ccc(Cl)cc2)nn1 [14a]: 106

Query: Assign activity at 10 µM to the following record: COc1cc(CNC(=O)CCCC/C=C/C(C)C)ccc1OCc1cn(-c2ccc(F)cc2)nn1 [14h]
Result: 102

Query: Assign activity at 10 µM to the following record: COc1cc(CNC(=O)CCCC/C=C/C(C)C)ccc1OCc1cn(-c2ccc(Br)cc2)nn1 [14k]
Result: 100

Query: Assign activity at 10 µM to the following record: COc1cc(CNC(=O)CCCC/C=C/C(C)C)ccc1OCc1cn(-c2ccccc2Cl)nn1 [14c]
Result: 106

Query: Assign activity at 10 µM to the following record: COc1cc(CNC(=O)CCCC/C=C/C(C)C)ccc1OCc1cn(-c2cccc(Cl)c2)nn1 [14b]
Result: 106

Query: Assign activity at 10 µM to the following record: COc1cc(CNC(=O)CCCC/C=C/C(C)C)ccc1OCc1cn(-c2ccccc2OC)nn1 [14l]
Result: 116

Query: Assign activity at 10 µM to the following record: COc1cc(CNC(=O)CCCC/C=C/C(C)C)ccc1OCc1cn(-c2ccc(C#N)cc2)nn1 [14j]
Result: 105

====

# Test system: SK-MEL-5
# assayOverview: NCI-60 single-dose antiproliferative screen
# Assay type: cell-based
# recordedConditions: Homo sapiens, SK-MEL-5, 48 h, read-out: growth percent
Quick rule: activity at 10 µM of at least 80% means 1, below that means -1.

COc1cc(CNC(=O)CCCC/C=C/C(C)C)ccc1OCc1cn(-c2cccc([N+](=O)[O-])c2)nn1 [14f]: 1
CCc1ccc(-n2cc(COc3ccc(CNC(=O)CCCC/C=C/C(C)C)cc3OC)nn2)cc1 [14o]: 1
COc1cc(CNC(=O)CCCC/C=C/C(C)C)ccc1OCc1cn(-c2cc(OC)c(OC)c(OC)c2)nn1 [14m]: -1
COc1cc(CNC(=O)CCCC/C=C/C(C)C)ccc1OCc1cn(-c2ccc(C#N)cc2)nn1 [14j]: 1
COc1cc(CNC(=O)CCCC/C=C/C(C)C)ccc1OCc1cn(-c2ccccc2Cl)nn1 [14c]: 1

Query: Decide: is the reported value of activity at 10 µM for COc1cc(CNC(=O)CCCC/C=C/C(C)C)ccc1OCc1cn(-c2ccc(F)cc2)nn1 [14h] equal to or greater than 80%?
Result: 1

Query: Decide: is the reported value of activity at 10 µM for COc1cc(CNC(=O)CCCC/C=C/C(C)C)ccc1OCc1cn(-c2ccccc2F)nn1 [14i] equal to or greater than 80%?
Result: 1

Query: Decide: is the reported value of activity at 10 µM for COc1cc(CNC(=O)CCCC/C=C/C(C)C)ccc1OCc1cn(-c2ccc([N+](=O)[O-])cc2)nn1 [14e] equal to or greater than 80%?
Result: -1

Query: Decide: is the reported value of activity at 10 µM for COc1cc(CNC(=O)CCCC/C=C/C(C)C)ccc1OCc1cn(-c2ccc(C)cc2)nn1 [14n] equal to or greater than 80%?
Result: 1

Query: Decide: is the reported value of activity at 10 µM for COc1cc(CNC(=O)CCCC/C=C/C(C)C)ccc1OCc1cn(-c2cccc(Cl)c2)nn1 [14b] equal to or greater than 80%?
Result: 1

Query: Decide: is the reported value of activity at 10 µM for COc1cc(CNC(=O)C[C@H](C)CCC=C(C)C)ccc1OCc1cn(-c2ccc(Cl)cc2)nn1 [18b] equal to or greater than 80%?
Result: -1

Query: Decide: is the reported value of activity at 10 µM for COc1cc(CNC(=O)CCCC/C=C/C(C)C)ccc1OCc1cn(-c2ccc(C(F)(F)F)cc2)nn1 [14g] equal to or greater than 80%?
Result: 1

Query: Decide: is the reported value of activity at 10 µM for COc1cc(CNC(=O)CCCC/C=C/C(C)C)ccc1OCc1cn(-c2ccccc2OC)nn1 [14l] equal to or greater than 80%?
Result: 1

Query: Decide: is the reported value of activity at 10 µM for COc1cc(CNC(=O)CCCC/C=C/C(C)C)ccc1OCc1cn(-c2ccc(Br)cc2)nn1 [14k] equal to or greater than 80%?
Result: -1

Query: Decide: is the reported value of activity at 10 µM for COc1cc(CNC(=O)CCCC/C=C/C(C)C)ccc1OCc1cn(-c2ccc(Cl)cc2)nn1 [14a] equal to or greater than 80%?
Result: -1

====

Here, each record is paired with measured activity at 10 µM data.
# Tested on: NCI-H522
# assayOverview: NCI-60 single-dose antiproliferative screen
# Format: cell-based
# recordedConditions: Homo sapiens, NCI-H522, 48 h, read-out: growth percent
Give just the numeric value; % need not be written.

Field: example entries. Status: answers known.
COc1cc(CNC(=O)CCCC/C=C/C(C)C)ccc1OCc1cn(-c2ccccc2Cl)nn1 [14c]: 64.5
COc1cc(CNC(=O)CCCC/C=C/C(C)C)ccc1OCc1cn(-c2ccc(C)c(C)c2)nn1 [14p]: 80.7
COc1cc(CNC(=O)CCCC/C=C/C(C)C)ccc1OCc1cn(-c2cccc([N+](=O)[O-])c2)nn1 [14f]: 82.6
COc1cc(CNC(=O)CCCC/C=C/C(C)C)ccc1OCc1cn(-c2cc(OC)c(OC)c(OC)c2)nn1 [14m]: 65.2
COc1cc(CNC(=O)CCCC/C=C/C(C)C)ccc1OCc1cn(-c2ccc(F)cc2)nn1 [14h]: 70.2

Query: Assign activity at 10 µM to the following record: COc1cc(CNC(=O)CCCC/C=C/C(C)C)ccc1OCc1cn(-c2ccc(C)cc2)nn1 [14n]
Result: 62.1

Query: Assign activity at 10 µM to the following record: COc1cc(CNC(=O)CCCC/C=C/C(C)C)ccc1OCc1cn(-c2ccccc2F)nn1 [14i]
Result: 77.5

====

Here, each record is paired with measured activity at 10 µM data.
# System: ACHN
# assayOverview: NCI-60 single-dose antiproliferative screen
# Assay type: cell-based
# recordedConditions: Homo sapiens, 48 h, read-out: growth percent

Field: example entries. Status: answers known.
COc1cc(CNC(=O)CCCC/C=C/C(C)C)ccc1OCc1cn(-c2ccc(Br)cc2)nn1 [14k]: 87.7%
COc1cc(CNC(=O)CCCC/C=C/C(C)C)ccc1OCc1cn(-c2ccccc2F)nn1 [14i]: 83%
COc1cc(CNC(=O)CCCC/C=C/C(C)C)ccc1OCc1cn(-c2cccc([N+](=O)[O-])c2)nn1 [14f]: 78.9%
COc1cc(CNC(=O)CCCC/C=C/C(C)C)ccc1OCc1cn(-c2ccc(F)cc2)nn1 [14h]: 81.2%
COc1cc(CNC(=O)CCCC/C=C/C(C)C)ccc1OCc1cn(-c2ccc(C)cc2)nn1 [14n]: 72%
COc1cc(CNC(=O)CCCC/C=C/C(C)C)ccc1OCc1cn(-c2ccc(C)c(C)c2)nn1 [14p]: 68.5%
COc1cc(CNC(=O)CCCC/C=C/C(C)C)ccc1OCc1cn(-c2cccc(Cl)c2)nn1 [14b]: 73%
COc1cc(CNC(=O)CCCC/C=C/C(C)C)ccc1OCc1cn(-c2ccc([N+](=O)[O-])cc2)nn1 [14e]: 82%

Query: Assign activity at 10 µM to the following record: COc1cc(CNC(=O)C[C@H](C)CCC=C(C)C)ccc1OCc1cn(-c2ccc(Cl)cc2)nn1 [18b]
Result: 44.8%

Query: Assign activity at 10 µM to the following record: COc1cc(CNC(=O)CCCC/C=C/C(C)C)ccc1OCc1cn(-c2ccc(Cl)cc2)nn1 [14a]
Result: 59.7%

Query: Assign activity at 10 µM to the following record: COc1cc(CNC(=O)CCCC/C=C/C(C)C)ccc1OCc1cn(-c2ccccc2Cl)nn1 [14c]
Result: 74.1%

====

# Test system: UACC-257
# assayOverview: NCI-60 single-dose antiproliferative screen
# Type: cell-based
# recordedConditions: Homo sapiens, UACC-257, 48 h, read-out: growth percent
Quick rule: activity at 10 µM of at least 90% means Y, below that means N.

COc1cc(CNC(=O)CCCC/C=C/C(C)C)ccc1OCc1cn(-c2cccc([N+](=O)[O-])c2)nn1 [14f]: Y
CCc1ccc(-n2cc(COc3ccc(CNC(=O)CCCC/C=C/C(C)C)cc3OC)nn2)cc1 [14o]: N
COc1cc(CNC(=O)CCCC/C=C/C(C)C)ccc1OCc1cn(-c2ccc(C(F)(F)F)cc2)nn1 [14g]: Y
COc1cc(CNC(=O)CCCC/C=C/C(C)C)ccc1OCc1cn(-c2ccc(C)c(C)c2)nn1 [14p]: N
COc1cc(CNC(=O)CCCC/C=C/C(C)C)ccc1OCc1cn(-c2ccc(C#N)cc2)nn1 [14j]: Y
COc1cc(CNC(=O)C[C@H](C)CCC=C(C)C)ccc1OCc1cn(-c2ccc(Cl)cc2)nn1 [18b]: N
COc1cc(CNC(=O)CCCC/C=C/C(C)C)ccc1OCc1cn(-c2ccc([N+](=O)[O-])cc2)nn1 [14e]: N
COc1cc(CNC(=O)CCCC/C=C/C(C)C)ccc1OCc1cn(-c2ccccc2OC)nn1 [14l]: N
COc1cc(CNC(=O)CCCC/C=C/C(C)C)ccc1OCc1cn(-c2cc(OC)c(OC)c(OC)c2)nn1 [14m]: Y

Now consider the entry below.
Query: Decide: is the reported value of activity at 10 µM for COc1cc(CNC(=O)CCCC/C=C/C(C)C)ccc1OCc1cn(-c2ccccc2F)nn1 [14i] equal to or greater than 90%?
Result: Y
